tested on: MOLM14-D835Y; format: cell-based; conditions: read-out: IC50 MOLM14-D835Y
reportedMetric: IC50
Report field: quantity (unit follows the number).

Fill in the blank: the reported IC50 of Cc1ccc(C(=O)Nc2ccc(CN3CCN(C)CC3)c(C(F)(F)F)c2)cc1C#Cc1cnc2cccnn12 [Ponatinib, reference compound] is ____. 52.6 nM

###

test system: H520; assay type: cell-based; details: Homo sapiens, NCI-H520; growth inhibition, H520 cell line; read-out: IC50 H520
reportedMetric: IC50 (µM)
# unit: µM | format: bare number

Fill in the blank: the reported IC50 of CN1CCN(Cc2ccc(NC(=O)c3cncc(C#Cc4cnc5cccnn45)c3)cc2C(F)(F)F)CC1 [HSN748] is ____. 0.839

###

system: MOLM14; assay type: cell-based; conditions: Homo sapiens; cell activities of other nicotinamide compounds, MOLM-14; read-out: IC50 MOLM-14
What IC50 was measured for each of the following?
# unit: nM | format: bare number

Fill in the blank: the reported IC50 of `CN1CCN(Cc2ccc(NC(=O)c3cncc(C#Cc4cnc5cnccn45)c3)cc2C(F)(F)F)CC1` is ____. 0.15

`CN1CCN(Cc2ccc(NC(=O)c3cncc(C#Cc4cnc5ccccn45)c3)cc2C(F)(F)F)CC1` ? 0.04

`CN1CCN(Cc2ccc(NC(=O)c3cncc(C#Cc4cnc5ncccn45)c3)cc2C(F)(F)F)CC1` ? 5.15

`CN1CCN(Cc2ccc(C(=O)Nc3cncc(C#Cc4cnc5cccnn45)c3)cc2C(F)(F)F)CC1` ? 0.075

###

molecular target: c-SRC (Homo sapiens); experiment: Kinase IC50 at Reaction Biology; type: biochemical; details: [ATP] = 100 μM; read-out: IC50 c-SRC
Sequence (P12931 whole entry): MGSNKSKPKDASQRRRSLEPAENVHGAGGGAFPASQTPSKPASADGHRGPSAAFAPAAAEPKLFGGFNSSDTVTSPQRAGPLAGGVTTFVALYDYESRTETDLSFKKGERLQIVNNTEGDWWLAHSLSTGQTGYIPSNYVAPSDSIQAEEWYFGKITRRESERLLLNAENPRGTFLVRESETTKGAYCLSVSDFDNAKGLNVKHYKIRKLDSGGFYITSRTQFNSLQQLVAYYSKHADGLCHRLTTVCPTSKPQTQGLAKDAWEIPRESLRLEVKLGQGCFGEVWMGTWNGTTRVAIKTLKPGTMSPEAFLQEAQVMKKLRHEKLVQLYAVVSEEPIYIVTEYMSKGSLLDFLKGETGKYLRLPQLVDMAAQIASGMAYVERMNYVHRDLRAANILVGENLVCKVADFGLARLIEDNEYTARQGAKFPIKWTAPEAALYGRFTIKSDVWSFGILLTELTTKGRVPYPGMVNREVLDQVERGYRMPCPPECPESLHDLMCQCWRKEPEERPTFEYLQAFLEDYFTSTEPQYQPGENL
pIC50: −log10 of the molar value.
reportedMetric: pIC50

Fill in the blank: the reported pIC50 of CN1CCN(Cc2ccc(NC(=O)c3cncc(C#Cc4cnc5cccnn45)c3)cc2C(F)(F)F)CC1 [HSN748] is ____. < 6.00

###

biological target: c-SRC (Homo sapiens); assay: Kinase IC50 at Reaction Biology; assay type: biochemical; details: read-out: IC50 c-Src kinase
reportedMetric: IC50

Fill in the blank: the reported IC50 of `CN1CCN(Cc2ccc(NC(=O)c3cncc(C#Cc4cnc5cccnn45)c3)cc2C(F)(F)F)CC1` is ____. > 1 µM

Entry source: patent US20220089599A1
